Tested on: HeLa
method-description: Cytotoxicity against human HeLa cells by sulforhodamine B assay
Format: functional, cell-based
pIC50: −log10 of the molar value.

[
  {
    "smiles-repr": "CCC(=O)NC[C@@]1(O)[C@H](OC(C)=O)[C@]2(CC)C=CCN3CC[C@@]4(c5cc([C@@]6(C(=O)OC)C[C@@H]7C=C(CC)CN(CCc8c6[nH]c6ccccc86)C7)c(OC)cc5N(C)[C@@H]14)[C@@H]32",
    "pIC50": 7.24
  },
  {
    "smiles-repr": "CCC1=C[C@@H]2CN(CCc3c([nH]c4ccccc34)[C@@](C(=O)OC)(c3cc4c(cc3OC)N(C)[C@H]3[C@@](O)(CNC(=O)CC(C)(C)C)[C@H](OC(C)=O)[C@]5(CC)C=CCN6CC[C@]43[C@@H]65)C2)C1",
    "pIC50": 7.03
  }
]

---

// reported IC50 per item
Test system: A549
method-description: Cytotoxicity against human A549 cells by sulforhodamine B assay
Format: functional, cell-based
experimental-conditions: Homo sapiens, A549

[
  {
    "smiles-repr": "CCC1=C[C@@H]2CN(CCc3c([nH]c4ccccc34)[C@@](C(=O)OC)(c3cc4c(cc3OC)N(C)[C@H]3[C@@](O)(CNC(C)=O)[C@H](OC(C)=O)[C@]5(CC)C=CCN6CC[C@]43[C@@H]65)C2)C1",
    "value-units": "nM",
    "IC50": 22
  },
  {
    "smiles-repr": "CCC1=C[C@@H]2CN(CCc3c([nH]c4ccccc34)[C@@](C(=O)OC)(c3cc4c(cc3OC)N(C)[C@H]3[C@@](O)(CNC(=O)Cc5ccccc5)[C@H](OC(C)=O)[C@]5(CC)C=CCN6CC[C@]43[C@@H]65)C2)C1",
    "value-units": "nM",
    "IC50": 39
  },
  {
    "smiles-repr": "CCC1=C[C@@H]2CN(CCc3c([nH]c4ccccc34)[C@@](C(=O)OC)(c3cc4c(cc3OC)N(C)[C@H]3[C@@](O)(CNC(=O)c5ccc(F)cc5)[C@H](OC(C)=O)[C@]5(CC)C=CCN6CC[C@]43[C@@H]65)C2)C1",
    "value-units": "nM",
    "IC50": 20
  },
  {
    "smiles-repr": "CCC1=C[C@@H]2CN(CCc3c([nH]c4ccccc34)[C@@](C(=O)OC)(c3cc4c(cc3OC)N(C)[C@H]3[C@@](O)(CNC(=O)C(C)(C)C)[C@H](OC(C)=O)[C@]5(CC)C=CCN6CC[C@]43[C@@H]65)C2)C1",
    "value-units": "nM",
    "IC50": 95
  },
  {
    "smiles-repr": "CCC(=O)NC[C@@]1(O)[C@H](OC(C)=O)[C@]2(CC)C=CCN3CC[C@@]4(c5cc([C@@]6(C(=O)OC)C[C@@H]7C=C(CC)CN(CCc8c6[nH]c6ccccc86)C7)c(OC)cc5N(C)[C@@H]14)[C@@H]32",
    "value-units": "nM",
    "IC50": 43
  },
  {
    "smiles-repr": "CCC1=C[C@@H]2CN(CCc3c([nH]c4ccccc34)[C@@](C(=O)OC)(c3cc4c(cc3OC)N(C)[C@H]3[C@@](O)(CNC(=O)C5CCC5)[C@H](OC(C)=O)[C@]5(CC)C=CCN6CC[C@]43[C@@H]65)C2)C1",
    "value-units": "nM",
    "IC50": 34
  },
  {
    "smiles-repr": "CCC1=C[C@@H]2CN(CCc3c([nH]c4ccccc34)[C@@](C(=O)OC)(c3cc4c(cc3OC)N(C)[C@H]3[C@@](O)(CNC(=O)C5CC5)[C@H](OC(C)=O)[C@]5(CC)C=CCN6CC[C@]43[C@@H]65)C2)C1",
    "value-units": "nM",
    "IC50": 26
  },
  {
    "smiles-repr": "CCCC(=O)NC[C@@]1(O)[C@H](OC(C)=O)[C@]2(CC)C=CCN3CC[C@@]4(c5cc([C@@]6(C(=O)OC)C[C@@H]7C=C(CC)CN(CCc8c6[nH]c6ccccc86)C7)c(OC)cc5N(C)[C@@H]14)[C@@H]32",
    "value-units": "nM",
    "IC50": 96
  },
  {
    "smiles-repr": "CCC1=C[C@@H]2CN(CCc3c([nH]c4ccccc34)[C@@](C(=O)OC)(c3cc4c(cc3OC)N(C)[C@H]3[C@@](O)(CNC(=O)CC(C)C)[C@H](OC(C)=O)[C@]5(CC)C=CCN6CC[C@]43[C@@H]65)C2)C1",
    "value-units": "nM",
    "IC50": 152
  },
  {
    "smiles-repr": "CCC1=C[C@@H]2CN(CCc3c([nH]c4ccccc34)[C@@](C(=O)OC)(c3cc4c(cc3OC)N(C)[C@H]3[C@@](O)(CNC(=O)CC(C)(C)C)[C@H](OC(C)=O)[C@]5(CC)C=CCN6CC[C@]43[C@@H]65)C2)C1",
    "value-units": "nM",
    "IC50": 115
  },
  {
    "smiles-repr": "CCC1=C[C@@H]2CN(CCc3c([nH]c4ccccc34)[C@@](C(=O)OC)(c3cc4c(cc3OC)N(C)[C@H]3[C@@](O)(CNC(=O)c5ccc(Cl)cc5)[C@H](OC(C)=O)[C@]5(CC)C=CCN6CC[C@]43[C@@H]65)C2)C1",
    "value-units": "nM",
    "IC50": 25
  }
]
